Data credit: patent US20260317312A1

biological target: hRIPK1 (aa 1-375) fusion protein (Homo sapiens, UniProt Q13546); construct: hRIPK1 (aa 1-375) fusion protein; experiment: Receptor-Interacting Protein Kinase 1 inhibition, ADP Glo assay (conversion of ATP to ADP due to autophosphorylation); conditions: ATP 50 μM, 30 min preincubation, 240 min incubation, room temperature, DMSO 1%
Sequence (Q13546 1-375): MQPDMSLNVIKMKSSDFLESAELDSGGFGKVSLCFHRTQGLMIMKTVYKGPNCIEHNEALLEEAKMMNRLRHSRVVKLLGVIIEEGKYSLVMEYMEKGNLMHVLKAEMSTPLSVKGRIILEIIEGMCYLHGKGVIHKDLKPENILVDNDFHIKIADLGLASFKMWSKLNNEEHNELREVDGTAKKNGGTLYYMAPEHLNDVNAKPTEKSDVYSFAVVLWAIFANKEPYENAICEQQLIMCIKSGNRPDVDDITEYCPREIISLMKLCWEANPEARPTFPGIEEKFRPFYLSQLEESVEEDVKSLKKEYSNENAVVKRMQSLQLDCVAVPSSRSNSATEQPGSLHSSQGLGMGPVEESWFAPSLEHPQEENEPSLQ
IC50 reference
Unit nM implied. Number only.

Worked set:
N#Cc1cncc([C@@H]2CCON2C(=O)[C@H]2CC[C@H](COc3cccc(C(N)=O)c3)CC2)c1: 29
N#Cc1cc(N[C@H]2C[C@@H](C(=O)N3OCC[C@H]3c3cc(F)cc(F)c3)C2)ncn1: 41
CC1(C)OC(=O)N(c2ccc(Cl)c(OC[C@H]3CC[C@H](C(=O)N4OCC[C@H]4c4cc(F)cc(F)c4)CC3)c2)C1=O: 38
N#Cc1cc(F)cc([C@@H]2CCON2C(=O)[C@H]2C[C@@H](Nc3ccc(F)c(C#N)c3)C2)c1: 28
NC(=O)c1cc(OCC2CCCC(C(=O)N3OCC[C@H]3c3cc(F)cc(F)c3)CC2)ncn1 (single isomer, unassigned; stereoisomer 2) [Compound 123]: 14

Give the measured IC50 of N#Cc1cc(N[C@H]2C[C@@H](C(=O)N3OCC[C@H]3c3cccc(F)c3)C2)ncn1 .
56

What value of measured IC50 is listed for N#Cc1cc(F)cc(N[C@H]2C[C@@H](C(=O)N3OCC[C@H]3c3cc(F)cc(C#N)c3)C2)c1 ?
34

// IC50 lookup, key: N#Cc1cncc([C@@H]2CCON2C(=O)[C@H]2CC[C@H](COc3cc(C#N)ccn3)CC2)c1
58
